target: Cdc42 activated mutant (human), GST fusion; test: constitutively active Cdc42 fluorescent GTP binding inhibition – biochemical, oxadiazole analogs, multiplex bead flow cytometry, Ki, SAR follow-up (AID 2009); settings: Bead-based flow cytometry, Bodipy-FL-GTP binding
Active and inactive are the calls of the source.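 Rule for the calls: active = EC50 of 30 microM or lower and a span of response of at least a set limit; inactive = the rest.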
assayEndpoint: EC50

[[record]]
chemicalsmiles = "COc1ccc(-c2noc(CCC(=O)N3CCN(c4cccc(C)c4)CC3)n2)cc1"
assayendpoint = "EC50"
assayvalue = "2.34 µM"

[[record]]
chemicalsmiles = "Cc1ccc(C)c(N2CCN(C(=O)CCc3nc(-c4ccc(N(C)C)cc4)no3)CC2)c1"
assayendpoint = "EC50"
assayvalue = "1.66 µM"

[[record]]
chemicalsmiles = "COc1ccc(-c2noc(CC(=O)N3CCN(c4cc(C)ccc4C)CC3)n2)cc1"
assayendpoint = "EC50"
assayvalue = "inactive"

[[record]]
chemicalsmiles = "Cc1ccc(C)c(N2CCN(C(=O)CCc3nc(-c4ccc(Cl)cc4)no3)CC2)c1"
assayendpoint = "EC50"
assayvalue = "1.66 µM"

[[record]]
chemicalsmiles = "COc1ccc(-c2noc(CCC(=O)N3CCN(c4cccc(Cl)c4)CC3)n2)cc1"
assayendpoint = "EC50"
assayvalue = "7.13 µM"

[[record]]
chemicalsmiles = "Cc1ccc(C)c(N2CCN(C(=O)CCc3nc(-c4ccccc4Br)no3)CC2)c1"
assayendpoint = "EC50"
assayvalue = "1.19 µM"

[[record]]
chemicalsmiles = "COc1ccc(-c2cc(CCC(=O)N3CCN(c4cc(C)ccc4C)CC3)on2)cc1"
assayendpoint = "EC50"
assayvalue = "1.45 µM"

[[record]]
chemicalsmiles = "Cc1ccc(C)c(N2CCN(C(=O)CCc3nc(-c4ccccc4Cl)no3)CC2)c1"
assayendpoint = "EC50"
assayvalue = "0.951 µM"

[[record]]
chemicalsmiles = "COc1ccc(-c2ccc(CCC(=O)N3CCN(c4cc(C)ccc4C)CC3)s2)cc1"
assayendpoint = "EC50"
assayvalue = "2.94 µM"

[[record]]
chemicalsmiles = "COc1ccc(-c2noc(CCC(=O)N3CCN(c4cccc(C)c4C)CC3)n2)cc1"
assayendpoint = "EC50"
assayvalue = "1.38 µM"

[[record]]
chemicalsmiles = "Cc1ccc(-c2noc(CCC(=O)N3CCN(c4cc(C)ccc4C)CC3)n2)cc1"
assayendpoint = "EC50"
assayvalue = "3.03 µM"

[[record]]
chemicalsmiles = "COc1ccc(-c2noc(CCC(=O)N3CCN(c4ccccc4C)CC3)n2)cc1"
assayendpoint = "EC50"
assayvalue = "1.05 µM"

[[record]]
chemicalsmiles = "COc1ccc(-c2noc(CCC(=O)N3CCN(c4ccc(OC)cc4)CC3)n2)cc1"
assayendpoint = "EC50"
assayvalue = "0.7 µM"

[[record]]
chemicalsmiles = "Cc1ccc(C)c(N2CCN(C(=O)CCc3nc(-c4cccc(Cl)c4)no3)CC2)c1"
assayendpoint = "EC50"
assayvalue = "3.91 µM"

[[record]]
chemicalsmiles = "COc1ccc(-c2noc(CCC(=O)N3CCN(c4ccc(C)cc4)CC3)n2)cc1"
assayendpoint = "EC50"
assayvalue = "inactive"

[[record]]
chemicalsmiles = "COc1ccc(-c2noc(CCC(=O)N3CCC(c4cc(C)ccc4C)CC3)n2)cc1"
assayendpoint = "EC50"
assayvalue = "1.63 µM"

[[record]]
chemicalsmiles = "Cc1ccc(C)c(N2CCN(C(=O)CCc3nc(-c4ccccc4C)no3)CC2)c1"
assayendpoint = "EC50"
assayvalue = "1.54 µM"

[[record]]
chemicalsmiles = "COc1cccc(-c2noc(CCC(=O)N3CCN(c4cc(C)ccc4C)CC3)n2)c1"
assayendpoint = "EC50"
assayvalue = "3.68 µM"

[[record]]
chemicalsmiles = "Cc1ccc(C)c(N2CCN(C(=O)CCc3nc(-c4cccc(F)c4)no3)CC2)c1"
assayendpoint = "EC50"
assayvalue = "1.84 µM"

[[record]]
chemicalsmiles = "Cc1ccc(C)c(N2CCN(C(=O)CCc3nc(-c4ccc(C(F)(F)F)cc4)no3)CC2)c1"
assayendpoint = "EC50"
assayvalue = "4.98 µM"

[[record]]
chemicalsmiles = "COc1ccc(-c2ccc(CCC(=O)N3CCN(c4cc(C)ccc4C)CC3)o2)cc1"
assayendpoint = "EC50"
assayvalue = "> 30 µM (inactive)"

[[record]]
chemicalsmiles = "COc1ccc(-c2noc(CCC(=O)N3CCN(c4ccccc4Cl)CC3)n2)cc1"
assayendpoint = "EC50"
assayvalue = "2.03 µM"

[[record]]
chemicalsmiles = "Cc1ccc(C)c(N2CCN(C(=O)CCc3nc(-c4ccc(F)cc4)no3)CC2)c1"
assayendpoint = "EC50"
assayvalue = "0.665 µM"

[[record]]
chemicalsmiles = "Cc1ccc(C)c(N2CCN(C(=O)CCc3nc(-c4cccc(Br)c4)no3)CC2)c1"
assayendpoint = "EC50"
assayvalue = "2.34 µM"


meta.source: PubChem BioAssay AID2009
